These data points were gathered from paper PMC7904743.

Kindly state remaining activity at 100 µM for each of the entries shown.
EXPERIMENTAL_SYSTEM: MurA (Escherichia coli, UniProt P0A749)
Sequence (P0A749 whole entry): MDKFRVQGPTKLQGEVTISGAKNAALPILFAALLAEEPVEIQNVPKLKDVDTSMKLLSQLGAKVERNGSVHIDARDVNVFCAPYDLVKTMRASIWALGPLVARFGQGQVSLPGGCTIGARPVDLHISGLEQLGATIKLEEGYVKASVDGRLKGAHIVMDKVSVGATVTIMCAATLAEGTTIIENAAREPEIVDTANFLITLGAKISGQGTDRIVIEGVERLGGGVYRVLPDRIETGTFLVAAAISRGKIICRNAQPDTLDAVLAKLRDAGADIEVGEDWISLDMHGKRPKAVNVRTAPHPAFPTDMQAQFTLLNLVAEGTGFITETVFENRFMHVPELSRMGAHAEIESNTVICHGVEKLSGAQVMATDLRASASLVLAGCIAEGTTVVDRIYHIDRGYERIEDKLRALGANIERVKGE
EXPERIMENTAL_DETAILS: biochemical
TEST_SETTINGS: read-out: RA
Answers are plain numbers, in %.

Worked cases, answers included:
Input line: I have this compound here, C=CC(=O)N(C)C , and I need its recorded remaining activity at 100 µM.
Output line: 95

Input line: I have this compound here, CN1C(=O)C=CC1=O , and I need its recorded remaining activity at 100 µM.
Output line: 1

Input line: I have this compound here, C/C=C/C(=O)OC , and I need its recorded remaining activity at 100 µM.
Output line: 41

Your task in this section: give remaining activity at 100 µM for each listed record.
1. CCOC(=O)/C=C/c1ccccc1
2. O=C1C=CCO1

Output line:
92
75

Your task in this section: give remaining activity at 100 µM for each listed record.
1. CC#CC(=O)OCC
2. CC(C)(C)OC(=O)N1CC=CC1=O

Output line:
1: 82; 2: 92

----------
EXPERIMENTAL_SYSTEM: Recombinant human microsomal MAO-A (Homo sapiens)
Construct: purchased Sigma Aldrich; host or cells: baculovirus infected insect cells (BTI-TN-5B1-4)
Sequence (P21397 1-527): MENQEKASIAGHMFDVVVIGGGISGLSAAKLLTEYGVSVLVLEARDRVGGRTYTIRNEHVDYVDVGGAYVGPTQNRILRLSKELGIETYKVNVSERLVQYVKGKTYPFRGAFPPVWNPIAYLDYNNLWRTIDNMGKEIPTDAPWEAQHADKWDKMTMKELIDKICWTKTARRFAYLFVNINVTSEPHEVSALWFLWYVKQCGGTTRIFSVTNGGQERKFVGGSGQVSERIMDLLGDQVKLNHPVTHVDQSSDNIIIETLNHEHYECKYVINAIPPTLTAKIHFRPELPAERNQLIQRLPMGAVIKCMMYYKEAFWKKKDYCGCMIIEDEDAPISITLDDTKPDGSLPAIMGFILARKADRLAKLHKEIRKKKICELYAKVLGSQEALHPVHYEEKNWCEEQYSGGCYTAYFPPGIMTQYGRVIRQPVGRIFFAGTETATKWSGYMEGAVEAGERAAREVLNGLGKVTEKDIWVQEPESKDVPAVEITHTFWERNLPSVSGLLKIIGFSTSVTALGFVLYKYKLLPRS
EXPERIMENTAL_DETAILS: MAO-A activity assay (fluorimetric, Amplex Red, p-tyramine)
Type: biochemical
TEST_SETTINGS: MAO-A residual activity; active if lower than 60%
ENDPOINT_NAME: RA (%)
One number for each entry, in %.

Input line: I have this molecule here, CC(Br)C(=O)Nc1cc(C(F)(F)F)cc(C(F)(F)F)c1 (stereo not drawn) , and I need its recorded RA.
Output line: 83

Your task in this section: give RA for each listed record.
1. O=C(CBr)c1ccc(-c2ccccc2)cc1 [Compound 44, O=C(CBr)c1ccc(-c2ccccc2)cc1]
2. O=C(CBr)c1ccccc1
3. COC(=O)/C=C/C(=O)OC

Output line:
1: 14; 2: 39; 3: 80

----------
EXPERIMENTAL_SYSTEM: CatB (Homo sapiens, UniProt P07858)
EXPERIMENTAL_DETAILS: CatB single point enzyme activity assay (residual activity)
TEST_SETTINGS: read-out: RA
ENDPOINT_NAME: remaining activity at 100 µM (%)
One number for each entry, in %.

Worked cases, answers included:
Input line: API: value(readout=remaining activity at 100 µM, system=CatB (Homo sapiens, UniProt P07858)) for record CN1C(=O)C=CC1=O
Output line: 91

Input line: API: value(readout=remaining activity at 100 µM, system=CatB (Homo sapiens, UniProt P07858)) for record O=C1C=CC(=O)N1Cc1ccccc1
Output line: 87

Input line: API: value(readout=remaining activity at 100 µM, system=CatB (Homo sapiens, UniProt P07858)) for record CC(C)(C)OC(=O)N1CC=CC1=O
Output line: 85

Input line: API: value(readout=remaining activity at 100 µM, system=CatB (Homo sapiens, UniProt P07858)) for record COc1ccccc1C(=O)CBr
Output line: 55

Input line: API: value(readout=remaining activity at 100 µM, system=CatB (Homo sapiens, UniProt P07858)) for record C/C=C/C(=O)OC
Output line: 97

Your task in this section: give remaining activity at 100 µM for each listed record.
1. O=C1C=CC(=O)N1C1CCCCC1
2. Cc1ccccc1NC(=O)CCl
3. CC#CC(=O)OCC
4. O=C1C=CCO1

Output line:
1: 89; 2: 86; 3: 84; 4: 99
